# System: HTLA ER
# experiment-summary: MTS cell viability assay on HTLA ER NB cells
# Format: cell-based, human
# test-settings: over 24, 48, 72 h exposure; read-out: IC50 on MDR HTLA ER
pIC50: −log10 of the molar value.
experimental-endpoint: pIC50

Measured on HTLA ER, c1ccc([P+](CCCCCCCCCCCC[P+](c2ccccc2)(c2ccccc2)c2ccccc2)(c2ccccc2)c2ccccc2)cc1 [BPPB] has a documented pIC50 of 5.87 to 5.92

* * *

# System: HTLA ER
# experiment-summary: MTS cell viability assay on HTLA ER NB cells
# Assay type: cell-based, human
# test-settings: 24 h exposure; 0.1–2 µM; read-out: IC50 HTLA ER
experimental-endpoint: IC50 (µM)
Numeric only. Scale: µM

Measured on HTLA ER, `c1ccc([P+](CCCCCCCCCCCC[P+](c2ccccc2)(c2ccccc2)c2ccccc2)(c2ccccc2)c2ccccc2)cc1` has a documented IC50 of 1.24

* * *

# System: spinal cord astrocytes
# experiment-summary: MTT cytotoxicity assay on spinal cord astrocyte primary cell cultures
# Assay type: cell-based, C57BL/6J mice
# test-settings: 48 h exposure; 0.12–11.73 µM
experimental-endpoint: IC50 (µM)
Numeric only. Scale: µM

The recorded IC50 for entry c1ccc([P+](CCCCCCCCCCCC[P+](c2ccccc2)(c2ccccc2)c2ccccc2)(c2ccccc2)c2ccccc2)cc1 [BPPB] equals 11

* * *

# Test system: HTLA 230
# experiment-summary: MTS cell viability assay on HTLA 230 NB cells
# Format: cell-based, human
# test-settings: 24 h exposure; 0.1–2 µM; read-out: IC50 HTLA 230
experimental-endpoint: IC50 (nM)
Numeric only. Scale: nM

The recorded IC50 for entry `c1ccc([P+](CCCCCCCCCCCC[P+](c2ccccc2)(c2ccccc2)c2ccccc2)(c2ccccc2)c2ccccc2)cc1` equals 926
